EXPERIMENTAL_TARGET: Glutamate NMDA receptor; Grin1/Grin2b (Rattus norvegicus, UniProt P35439+Q00960)
Sequence (Q00960 whole entry, other chains not shown): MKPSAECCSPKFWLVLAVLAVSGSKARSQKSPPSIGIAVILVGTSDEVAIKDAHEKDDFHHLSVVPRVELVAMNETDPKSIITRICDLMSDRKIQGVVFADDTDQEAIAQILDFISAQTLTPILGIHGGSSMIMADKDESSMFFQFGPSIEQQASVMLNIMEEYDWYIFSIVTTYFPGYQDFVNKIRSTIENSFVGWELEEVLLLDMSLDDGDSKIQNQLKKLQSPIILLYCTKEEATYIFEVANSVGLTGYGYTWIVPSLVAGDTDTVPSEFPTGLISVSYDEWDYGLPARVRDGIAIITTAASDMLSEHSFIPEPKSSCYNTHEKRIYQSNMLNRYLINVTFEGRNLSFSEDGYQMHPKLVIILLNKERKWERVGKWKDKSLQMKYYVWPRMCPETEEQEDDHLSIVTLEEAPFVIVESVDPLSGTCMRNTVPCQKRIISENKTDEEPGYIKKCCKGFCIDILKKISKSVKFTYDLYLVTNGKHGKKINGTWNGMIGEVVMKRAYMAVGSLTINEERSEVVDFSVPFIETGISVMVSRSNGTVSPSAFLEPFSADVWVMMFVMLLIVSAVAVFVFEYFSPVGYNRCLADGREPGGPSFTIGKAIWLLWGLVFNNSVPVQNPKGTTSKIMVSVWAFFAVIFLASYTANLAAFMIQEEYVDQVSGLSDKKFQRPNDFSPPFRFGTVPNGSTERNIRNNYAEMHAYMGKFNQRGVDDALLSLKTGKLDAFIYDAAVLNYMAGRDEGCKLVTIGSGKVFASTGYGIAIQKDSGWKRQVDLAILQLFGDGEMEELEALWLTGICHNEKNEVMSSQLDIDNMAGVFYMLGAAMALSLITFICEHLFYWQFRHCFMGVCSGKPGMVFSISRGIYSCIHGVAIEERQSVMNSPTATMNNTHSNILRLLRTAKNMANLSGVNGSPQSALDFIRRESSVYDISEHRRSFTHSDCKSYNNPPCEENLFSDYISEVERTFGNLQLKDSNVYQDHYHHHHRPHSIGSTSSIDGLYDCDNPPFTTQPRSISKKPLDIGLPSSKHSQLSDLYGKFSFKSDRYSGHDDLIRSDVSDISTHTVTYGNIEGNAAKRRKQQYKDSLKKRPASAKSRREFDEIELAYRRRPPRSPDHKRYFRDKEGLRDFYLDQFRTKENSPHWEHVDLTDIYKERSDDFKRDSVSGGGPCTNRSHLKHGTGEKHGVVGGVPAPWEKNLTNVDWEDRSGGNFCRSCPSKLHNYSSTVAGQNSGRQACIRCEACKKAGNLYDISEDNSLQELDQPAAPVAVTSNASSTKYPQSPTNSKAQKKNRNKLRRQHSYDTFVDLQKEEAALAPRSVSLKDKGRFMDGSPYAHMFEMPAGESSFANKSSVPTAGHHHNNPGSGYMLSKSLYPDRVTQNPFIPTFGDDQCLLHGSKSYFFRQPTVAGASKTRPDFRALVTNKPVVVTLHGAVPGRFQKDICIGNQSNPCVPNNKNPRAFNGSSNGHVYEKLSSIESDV
TEST_METHOD_NOTES: Inhibitory activity against Xenopus oocytes expressing rat N-Methyl-D-aspartate (NR1A/2B) Receptor subtype.
EXPERIMENTAL_READOUT: pIC50
Convention used: pIC50 is expressed as -log10 of the molar concentration.

Q: Item under review: `Oc1ccc(CCCCN2CCC(c3ccccc3)CC2)cc1` . Reported pIC50?
Ans: 6.64

Q: Item under review: `Oc1ccc(C2=CCN(CCCCc3ccccc3)CC2)cc1` . Reported pIC50?
Ans: 7.96

Q: Item under review: Oc1ccc(C2CCN(CCCCCc3ccccc3)C2)cc1 (stereo unspecified) . Reported pIC50?
Ans: 7.77

Q: Item under review: `Oc1ccc(C2CCN(CCCc3ccccc3)CC2)cc1` . Reported pIC50?
Ans: 7.13

Q: Item under review: Oc1ccc(C2CCN(CC(O)CCc3ccccc3)CC2)cc1 (stereo unspecified) . Reported pIC50?
Ans: 7.72

Q: Item under review: `c1ccc(CCCCN2CCC(c3ccccc3)CC2)cc1` . Reported pIC50?
Ans: 5.66

----------
EXPERIMENTAL_TARGET: D(2) dopamine receptor (Rattus norvegicus, UniProt P61169)
Sequence (P61169 whole entry): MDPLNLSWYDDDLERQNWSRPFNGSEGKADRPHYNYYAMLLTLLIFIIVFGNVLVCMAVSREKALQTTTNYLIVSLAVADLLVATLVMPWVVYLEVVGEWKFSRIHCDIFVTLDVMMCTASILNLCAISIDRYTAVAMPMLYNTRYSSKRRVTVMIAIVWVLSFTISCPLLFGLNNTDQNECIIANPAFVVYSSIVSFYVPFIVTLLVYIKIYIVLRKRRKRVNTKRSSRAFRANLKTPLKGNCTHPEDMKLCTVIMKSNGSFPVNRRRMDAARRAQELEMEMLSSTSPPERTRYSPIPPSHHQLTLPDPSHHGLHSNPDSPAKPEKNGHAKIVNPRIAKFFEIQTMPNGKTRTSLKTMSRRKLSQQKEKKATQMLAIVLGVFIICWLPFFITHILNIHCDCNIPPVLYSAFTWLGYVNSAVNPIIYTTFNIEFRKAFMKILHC
TEST_METHOD_NOTES: Inhibition of [3H]-raclopride binding at Dopamine receptor D2 in rat brain membranes.
Lab note: anything with IC50 below 6 µM is marked yes (1); values at 6 µM or higher are marked no (0).

Example cases with answers are listed next.
Oc1ccc(C2(O)CCN(CCCCc3ccccc3)CC2)cc1: no (0)
COc1ccc(C2CCN(CCCCc3ccccc3)CC2)cc1.Cl: yes (1)
Oc1ccc(C2(O)CCN(CC(O)CCc3ccccc3)CC2)cc1 (stereo not given): no (0)

Q: Please indicate whether the reported IC50 of `Br.Oc1ccc(C2CCN(CCCCc3ccccc3)CC2)cc1` is strictly below 6 µM.
Ans: yes (1)

----------
EXPERIMENTAL_TARGET: Glutamate NMDA receptor; Grin1/Grin2b (Rattus norvegicus, UniProt P35439+Q00960)
TEST_METHOD_NOTES: Inhibitory activity against Xenopus oocytes expressing rat N-Methyl-D-aspartate (NR1A/2B) Receptor subtype.
Lab note: anything with IC50 below 30 nM is marked rule met; values at 30 nM or higher are marked rule not met.

Br.Oc1ccc(C2CCN(CCCCc3ccccc3)CC2)cc1: rule met
COc1ccc(C2CCN(CCCCc3ccccc3)CC2)cc1.Cl: rule not met
Oc1ccc(C2CCN(CCCCCc3ccccc3)CC2)cc1: rule not met
Oc1ccc(CC2CCN(CC#Cc3ccccc3)CC2)cc1: rule not met
Oc1ccc(C2(O)CCN(CCCCc3ccccc3)CC2)cc1: rule met
Oc1ccc(C2(O)CCN(CC(O)CCc3ccccc3)CC2)cc1 (configuration not stated): rule met
CCCCN1CCC(c2ccc(O)cc2)CC1: rule not met
Oc1ccc(CC2CCN(CCCc3ccccc3)CC2)cc1: rule not met

// switching to the query molecule
Q: Please indicate whether the reported IC50 of `Oc1ccc(C2CCN(CCOCc3ccccc3)CC2)cc1` is strictly below 30 nM.
Ans: rule met

----------
# log10 of IC50 per record follows
EXPERIMENTAL_TARGET: Adrenergic receptor alpha-1 (Rattus norvegicus, UniProt P15823+P23944+P43140)
TEST_METHOD_NOTES: Inhibition of [3H]prazosin binding at alpha-1 adrenergic receptor in rat brain cortical membranes.
Assay type: cell membranes, Membrane
// stored as log10 of IC50 expressed in µM

Some entries whose results are on file:
Br.Oc1ccc(C2CCN(CCCCc3ccccc3)CC2)cc1: -0.27
Oc1ccc(C2CCN(CC(O)CCc3ccccc3)CC2)cc1 (stereo not given): 0.15
Oc1ccc(C2(O)CCN(CC(O)CCc3ccccc3)CC2)cc1 (stereo not given): 1.15
COc1ccc(C2CCN(CCCCc3ccccc3)CC2)cc1.Cl: 0.23

Proceeding to the next molecule to report its log10 of IC50.
Q: Item under review: `Oc1ccc(C2(O)CCN(CCCCc3ccccc3)CC2)cc1` . Reported log10 of IC50?
Ans: 0.34

----------
EXPERIMENTAL_TARGET: Glutamate NMDA receptor; Grin1/Grin2a (Rattus norvegicus, UniProt P35439+Q00959)
Sequence (Q00959 whole entry, other chains not shown): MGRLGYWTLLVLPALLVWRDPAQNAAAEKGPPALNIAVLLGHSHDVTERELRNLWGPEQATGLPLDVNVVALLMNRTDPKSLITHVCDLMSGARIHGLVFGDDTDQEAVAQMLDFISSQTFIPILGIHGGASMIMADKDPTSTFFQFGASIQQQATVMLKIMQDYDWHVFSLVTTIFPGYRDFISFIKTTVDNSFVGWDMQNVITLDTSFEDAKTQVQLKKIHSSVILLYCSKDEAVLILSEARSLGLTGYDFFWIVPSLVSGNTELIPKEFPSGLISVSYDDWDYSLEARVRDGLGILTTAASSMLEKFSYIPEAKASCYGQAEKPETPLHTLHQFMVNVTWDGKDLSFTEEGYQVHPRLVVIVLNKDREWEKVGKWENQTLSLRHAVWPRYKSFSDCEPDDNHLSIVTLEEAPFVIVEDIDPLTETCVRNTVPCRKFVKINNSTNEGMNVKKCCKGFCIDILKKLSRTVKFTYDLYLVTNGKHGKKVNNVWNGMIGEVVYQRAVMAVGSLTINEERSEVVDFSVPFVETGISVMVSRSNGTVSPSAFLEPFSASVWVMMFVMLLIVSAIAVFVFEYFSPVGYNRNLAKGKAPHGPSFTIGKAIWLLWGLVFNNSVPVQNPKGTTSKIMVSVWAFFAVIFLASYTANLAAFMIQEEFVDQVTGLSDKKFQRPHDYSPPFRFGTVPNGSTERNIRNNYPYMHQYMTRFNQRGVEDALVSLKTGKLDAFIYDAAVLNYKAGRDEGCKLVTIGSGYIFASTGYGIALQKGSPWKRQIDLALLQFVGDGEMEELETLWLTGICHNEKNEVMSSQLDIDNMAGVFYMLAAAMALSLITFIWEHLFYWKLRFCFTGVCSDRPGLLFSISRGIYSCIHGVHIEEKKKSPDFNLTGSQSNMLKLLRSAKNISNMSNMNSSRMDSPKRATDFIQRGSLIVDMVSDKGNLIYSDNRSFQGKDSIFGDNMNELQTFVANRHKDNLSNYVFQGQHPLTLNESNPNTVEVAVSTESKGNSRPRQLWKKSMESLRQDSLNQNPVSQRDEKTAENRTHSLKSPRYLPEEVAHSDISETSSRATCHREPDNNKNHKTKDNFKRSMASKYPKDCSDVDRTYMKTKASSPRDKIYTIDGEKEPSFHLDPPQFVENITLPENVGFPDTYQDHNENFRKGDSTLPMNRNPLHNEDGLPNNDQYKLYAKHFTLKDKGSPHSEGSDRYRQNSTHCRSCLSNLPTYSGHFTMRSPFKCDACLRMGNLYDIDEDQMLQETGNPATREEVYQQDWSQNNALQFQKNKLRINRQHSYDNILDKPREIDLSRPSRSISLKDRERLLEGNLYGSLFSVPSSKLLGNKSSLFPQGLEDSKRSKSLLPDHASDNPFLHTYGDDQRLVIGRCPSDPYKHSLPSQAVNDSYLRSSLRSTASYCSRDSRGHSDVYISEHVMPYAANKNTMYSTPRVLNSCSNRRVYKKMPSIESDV
TEST_METHOD_NOTES: Inhibitory activity against Xenopus oocytes expressing rat N-Methyl-D-aspartate (NR1A/2A) Receptor subtype.
pIC50: −log10 of the molar value.
EXPERIMENTAL_READOUT: pIC50

Some entries whose results are on file:
c1ccc(CCCCN2CCC(c3ccccc3)CC2)cc1: < 4.00
COc1ccc(C2CCN(CCCCc3ccccc3)CC2)cc1.Cl: < 4.00
Oc1ccc(C2CCN(CCOCc3ccccc3)CC2)cc1: 4.23

Q: Item under review: `Oc1ccc(C2=CCN(CCCCc3ccccc3)CC2)cc1` . Reported pIC50?
Ans: < 4.00

Q: Item under review: `Oc1ccc(CC2CCN(CCC#Cc3ccccc3)CC2)cc1` . Reported pIC50?
Ans: < 4.00

Q: Item under review: `Oc1ccc(CCCCN2CCC(c3ccccc3)CC2)cc1` . Reported pIC50?
Ans: 4.37

----------
EXPERIMENTAL_TARGET: Glutamate NMDA receptor; Grin1/Grin2b (Rattus norvegicus, UniProt P35439+Q00960)
TEST_METHOD_NOTES: Inhibitory activity against Xenopus oocytes expressing rat N-Methyl-D-aspartate (NR1A/2B) Receptor subtype.
EXPERIMENTAL_READOUT: IC50 (nM)
Give the value in nM but do not write nM after it.

Oc1ccc(CC2CCN(CCC#Cc3ccccc3)CC2)cc1: 800
Oc1ccc(C2CCN(CCCCc3ccccc3)C2)cc1 (stereo not drawn): 130

Proceeding to the next compound to report its IC50.
Q: Item under review: `Oc1ccc(CC2CCN(CCCCc3ccccc3)CC2)cc1` . Reported IC50?
Ans: 71

----------
EXPERIMENTAL_TARGET: Glutamate NMDA receptor; Grin1/Grin2a (Rattus norvegicus, UniProt P35439+Q00959)
TEST_METHOD_NOTES: Inhibitory activity against Xenopus oocytes expressing rat N-Methyl-D-aspartate (NR1A/2A) Receptor subtype.
pIC50: −log10 of the molar value.
EXPERIMENTAL_READOUT: pIC50

Some entries whose results are on file:
Oc1ccc(C2CCN(CCCc3ccccc3)CC2)cc1: 4.29
Oc1ccc(CC2CCN(CCCc3ccccc3)CC2)cc1: < 4.00
CCCCN1CCC(c2ccc(O)cc2)CC1: < 4.00
Oc1ccc(CC2CCN(CC#Cc3ccccc3)CC2)cc1: < 4.00
Oc1ccc(C2CCN(CCCCCc3ccccc3)CC2)cc1: < 4.00

Q: Item under review: Oc1ccc(C2CCN(CC(O)CCc3ccccc3)CC2)cc1 (stereo unspecified) . Reported pIC50?
Ans: < 4.00

Q: Item under review: Oc1ccc(C2CCN(CCCCc3ccccc3)C2)cc1 (stereo unspecified) . Reported pIC50?
Ans: 4.28

Q: Item under review: `Oc1ccc(CC2CCN(CCCCc3ccccc3)CC2)cc1` . Reported pIC50?
Ans: < 4.00

Q: Item under review: Oc1ccc(C2CCN(CCCCCc3ccccc3)C2)cc1 (stereo unspecified) . Reported pIC50?
Ans: 4.39

Q: Item under review: `Br.Oc1ccc(C2CCN(CCCCc3ccccc3)CC2)cc1` . Reported pIC50?
Ans: < 4.00

Q: Item under review: `Oc1ccc(C2(O)CCN(CCCCc3ccccc3)CC2)cc1` . Reported pIC50?
Ans: 4.21
